Each recorded value in this set is attributed to BindingDB's records for doi:10.7270/Q2Q52N1X.

Reported values of EC50 for individual entries
# TARGET OR SYSTEM: Solute carrier family 12 member 5 (Homo sapiens)
# Sequence (Q9H2X9 whole entry): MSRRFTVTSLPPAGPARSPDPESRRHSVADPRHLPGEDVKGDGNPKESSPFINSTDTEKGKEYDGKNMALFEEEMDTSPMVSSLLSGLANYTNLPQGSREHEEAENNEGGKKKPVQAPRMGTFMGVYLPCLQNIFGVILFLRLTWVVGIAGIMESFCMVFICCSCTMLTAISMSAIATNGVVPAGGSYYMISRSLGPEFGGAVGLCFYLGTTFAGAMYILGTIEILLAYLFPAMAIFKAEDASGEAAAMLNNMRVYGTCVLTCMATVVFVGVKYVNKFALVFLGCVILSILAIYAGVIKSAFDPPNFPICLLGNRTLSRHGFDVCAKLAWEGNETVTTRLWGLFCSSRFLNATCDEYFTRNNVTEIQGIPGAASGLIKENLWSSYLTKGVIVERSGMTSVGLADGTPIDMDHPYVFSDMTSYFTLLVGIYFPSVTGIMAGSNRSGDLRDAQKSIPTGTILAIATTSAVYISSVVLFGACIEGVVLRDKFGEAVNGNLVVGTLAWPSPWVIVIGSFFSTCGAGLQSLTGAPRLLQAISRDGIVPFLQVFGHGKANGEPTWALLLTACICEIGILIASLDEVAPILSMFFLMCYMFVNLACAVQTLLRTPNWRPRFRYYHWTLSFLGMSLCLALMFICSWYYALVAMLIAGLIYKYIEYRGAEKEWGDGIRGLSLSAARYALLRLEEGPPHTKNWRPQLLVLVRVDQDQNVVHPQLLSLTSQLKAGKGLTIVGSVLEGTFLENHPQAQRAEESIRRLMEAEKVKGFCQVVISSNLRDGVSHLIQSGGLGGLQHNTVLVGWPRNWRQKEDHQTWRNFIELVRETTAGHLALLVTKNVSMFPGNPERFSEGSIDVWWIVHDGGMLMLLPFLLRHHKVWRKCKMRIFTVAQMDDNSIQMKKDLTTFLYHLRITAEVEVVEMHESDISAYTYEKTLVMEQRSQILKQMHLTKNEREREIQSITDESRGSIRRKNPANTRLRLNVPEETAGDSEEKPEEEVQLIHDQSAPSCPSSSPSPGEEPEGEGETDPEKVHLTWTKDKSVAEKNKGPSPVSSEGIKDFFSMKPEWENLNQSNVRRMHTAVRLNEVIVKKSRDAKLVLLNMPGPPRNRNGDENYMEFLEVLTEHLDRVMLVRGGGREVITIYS
# ASSAY EXPLANATION: concentration-response of KCC2 transport modulators – cell-based, HEK293 KCC2, FluoZin-2 fluorescence, dose response (AID 1736)
Non-standard residues stand in square brackets, D forms with d. Residues, ends and D or L forms follow the SMILES beside them. ξ: configuration not given here. *: point of attachment. ξF = NC(Cc1ccccc1)C(=O)O; Cbz = O=C(OCc1ccccc1)*
QUANTITY MEASURED: EC50 (µM)

CCC(CC)NC(=O)CSc1nnc(-c2c[nH]c3ccccc23)o1 : 334
O=C(OCC(=O)N1CCc2ccccc2C1)c1ccc(N2CCOCC2)c([N+](=O)[O-])c1 : 5.9
CCOC(=O)CNC(=O)C(Cc1ccccc1)NC(=O)OCc1ccccc1 (stereo not given) (Cbz-[ξF]-Gly-OEt) : 5.03
CCOc1cc(Br)ccc1S(=O)(=O)NCc1ccccc1 : 1.36
O=S(=O)(Nc1nc2ccccc2nc1N1CCN(c2ccccn2)CC1)c1ccc(Cl)cc1 : 9.37
